test system: NCI-H2170; test: relative viability (nuclei count vs DMSO), 5 days (fraction); higher = more cells survive; conditions: first compound 0.8 µM
Assign relative viability to each entry below.
Numbers only.

Molecule | Measurement type | Observed result
C=C1C(=O)O[C@@H](CCCCCCCC)[C@@H]1C(=O)O [C-75] + CC1(C)CCC(c2ccc(Cl)cc2)=C(CN2CCN(c3ccc(C(=O)NS(=O)(=O)c4ccc(N[C@H](CCN5CCOCC5)CSc5ccccc5)c(S(=O)(=O)C(F)(F)F)c4)cc3)CC2)C1 [Navitoclax] (partner 0.5 µM) | relative viability | 0.556
Oc1nc(-c2ccc(C(F)(F)F)cc2)nc2c1CSCC2 [XAV939] + CC(=O)c1c(C)c2cnc(Nc3ccc(N4CCNCC4)cn3)nc2n(C2CCCC2)c1=O [Palbociclib] (partner 0.5 µM) | relative viability | 0.436

Go through the items and report each one's relative viability.
1. C=C1C(=O)O[C@@H](CCCCCCCC)[C@@H]1C(=O)O [C-75] + CC(=O)c1c(C)c2cnc(Nc3ccc(N4CCNCC4)cn3)nc2n(C2CCCC2)c1=O [Palbociclib] (partner 0.5 µM)
2. Oc1nc(-c2ccc(C(F)(F)F)cc2)nc2c1CSCC2 [XAV939] + CCNC(=O)c1noc(-c2cc(C(C)C)c(O)cc2O)c1-c1ccc(CN2CCOCC2)cc1 [Luminespib] (partner 0.01 µM)

[0.377, 0.704]

* * *

tested on: NCI-H2126; test: relative viability (nuclei count vs DMSO), 5 days (fraction); higher = more cells survive; conditions: first compound 0.253 µM
Binary label based on relative viability with cut-off 0.6: below gives fulfilled, not below gives not fulfilled.

Use these answered entries as a reference point.
Molecule | Label class
C=C1C(=O)O[C@@H](CCCCCCCC)[C@@H]1C(=O)O [C-75] + O=C(CCCCCCC(=O)Nc1ccccc1)NO [Vorinostat] (partner 1 µM) | not fulfilled
Oc1nc(-c2ccc(C(F)(F)F)cc2)nc2c1CSCC2 [XAV939] + N=C(N)NC(=N)NCCc1ccccc1 [Phenformin] (partner 250 µM) | fulfilled

Take the molecule C=C1C(=O)O[C@@H](CCCCCCCC)[C@@H]1C(=O)O [C-75] + CC(=O)c1c(C)c2cnc(Nc3ccc(N4CCNCC4)cn3)nc2n(C2CCCC2)c1=O [Palbociclib] (partner 0.5 µM) and say whether its relative viability is less than 0.6.
fulfilled

Take the molecule C=C1C(=O)O[C@@H](CCCCCCCC)[C@@H]1C(=O)O [C-75] + C[C@@H](Oc1cc(-c2cnn(C3CCNCC3)c2)cnc1N)c1c(Cl)ccc(F)c1Cl [Crizotinib] (partner 1 µM) and say whether its relative viability is less than 0.6.
not fulfilled

Take the molecule Oc1nc(-c2ccc(C(F)(F)F)cc2)nc2c1CSCC2 [XAV939] + CC(C)C[C@H](NC(=O)[C@H](Cc1ccccc1)NC(=O)c1cnccn1)B(O)O [Bortezomib] (partner 0.002 µM) and say whether its relative viability is less than 0.6.
not fulfilled

Take the molecule C=C1C(=O)O[C@@H](CCCCCCCC)[C@@H]1C(=O)O [C-75] + CC1(C)CCC(c2ccc(Cl)cc2)=C(CN2CCN(c3ccc(C(=O)NS(=O)(=O)c4ccc(N[C@H](CCN5CCOCC5)CSc5ccccc5)c(S(=O)(=O)C(F)(F)F)c4)cc3)CC2)C1 [Navitoclax] (partner 0.5 µM) and say whether its relative viability is less than 0.6.
not fulfilled

Take the molecule C=C1C(=O)O[C@@H](CCCCCCCC)[C@@H]1C(=O)O [C-75] + N=C(N)NC(=N)NCCc1ccccc1 [Phenformin] (partner 250 µM) and say whether its relative viability is less than 0.6.
fulfilled

Take the molecule C=C1C(=O)O[C@@H](CCCCCCCC)[C@@H]1C(=O)O [C-75] + C[C@]1(O)C[C@@H](c2nc(-c3ccc4ccc(-c5ccccc5)nc4c3)c3c(N)nccn32)C1 [Linsitinib] (partner 1 µM) and say whether its relative viability is less than 0.6.
not fulfilled

Take the molecule Oc1nc(-c2ccc(C(F)(F)F)cc2)nc2c1CSCC2 [XAV939] + C[C@@H](Oc1cc(-c2cnn(C3CCNCC3)c2)cnc1N)c1c(Cl)ccc(F)c1Cl [Crizotinib] (partner 1 µM) and say whether its relative viability is less than 0.6.
not fulfilled

Take the molecule Oc1nc(-c2ccc(C(F)(F)F)cc2)nc2c1CSCC2 [XAV939] + COc1cccc2cc(-c3nc([C@H]4CC[C@H](C(=O)O)CC4)n4ncnc(N)c34)[nH]c12 [OSI-027] (partner 0.5 µM) and say whether its relative viability is less than 0.6.
not fulfilled

Take the molecule C=C1C(=O)O[C@@H](CCCCCCCC)[C@@H]1C(=O)O [C-75] + COc1cccc2cc(-c3nc([C@H]4CC[C@H](C(=O)O)CC4)n4ncnc(N)c34)[nH]c12 [OSI-027] (partner 0.5 µM) and say whether its relative viability is less than 0.6.
not fulfilled

* * *

system: NCI-H322M; experiment: relative viability (nuclei count vs DMSO), 5 days (fraction); higher = more cells survive; conditions: first compound 0.04 µM
Binary label based on relative viability with cut-off 0.8: below gives fulfilled, not below gives not fulfilled.

Use these answered entries as a reference point.
Molecule | Label class
O=C(O)c1ccc(-c2c[nH]c3ncc(-c4ccccc4)cc23)cc1C1CCCC1 + N=C(N)NC(=N)NCCc1ccccc1 [Phenformin] (partner 250 µM) | fulfilled
O=C(O)c1ccc(-c2c[nH]c3ncc(-c4ccccc4)cc23)cc1C1CCCC1 + CC(=O)c1c(C)c2cnc(Nc3ccc(N4CCNCC4)cn3)nc2n(C2CCCC2)c1=O [Palbociclib] (partner 0.5 µM) | fulfilled
O=C(O)c1ccc(-c2c[nH]c3ncc(-c4ccccc4)cc23)cc1C1CCCC1 + C[C@]1(O)C[C@@H](c2nc(-c3ccc4ccc(-c5ccccc5)nc4c3)c3c(N)nccn32)C1 [Linsitinib] (partner 1 µM) | not fulfilled
O=C(O)c1ccc(-c2c[nH]c3ncc(-c4ccccc4)cc23)cc1C1CCCC1 + CS(=O)(=O)N1CCN(Cc2cc3nc(-c4cccc5[nH]ncc45)nc(N4CCOCC4)c3s2)CC1 [Pictilisib] (partner 1 µM) | fulfilled
O=C(O)c1ccc(-c2c[nH]c3ncc(-c4ccccc4)cc23)cc1C1CCCC1 + Cc1cc(Nc2cc(N3CCN(C)CC3)nc(Sc3ccc(NC(=O)C4CC4)cc3)n2)n[nH]1 [Tozasertib] (partner 0.1 µM) | fulfilled

Take the molecule O=C(O)c1ccc(-c2c[nH]c3ncc(-c4ccccc4)cc23)cc1C1CCCC1 + CC1(C)CCC(c2ccc(Cl)cc2)=C(CN2CCN(c3ccc(C(=O)NS(=O)(=O)c4ccc(N[C@H](CCN5CCOCC5)CSc5ccccc5)c(S(=O)(=O)C(F)(F)F)c4)cc3)CC2)C1 [Navitoclax] (partner 0.5 µM) and say whether its relative viability is less than 0.8.
not fulfilled

Take the molecule O=C(O)c1ccc(-c2c[nH]c3ncc(-c4ccccc4)cc23)cc1C1CCCC1 + O=C(c1cc(Cc2n[nH]c(=O)c3ccccc23)ccc1F)N1CCN(C(=O)C2CC2)CC1 [Olaparib] (partner 8 µM) and say whether its relative viability is less than 0.8.
not fulfilled

* * *

Assign relative viability to each entry below.
tested on: CAL-12T; experiment: relative viability (nuclei count vs DMSO), 5 days (fraction); higher = more cells survive; conditions: first compound 0.08 µM
Numbers only.

Compound | relative viability
C=C1C(=O)O[C@@H](CCCCCCCC)[C@@H]1C(=O)O [C-75] + CC(=O)c1c(C)c2cnc(Nc3ccc(N4CCNCC4)cn3)nc2n(C2CCCC2)c1=O [Palbociclib] (partner 0.5 µM) | 0.531
C=C1C(=O)O[C@@H](CCCCCCCC)[C@@H]1C(=O)O [C-75] + Cc1nc(Nc2ncc(C(=O)Nc3c(C)cccc3Cl)s2)cc(N2CCN(CCO)CC2)n1 [Dasatinib] (partner 0.075 µM) | 0.391
C=C1C(=O)O[C@@H](CCCCCCCC)[C@@H]1C(=O)O [C-75] + CC(=O)Nc1cccc(-n2c(=O)n(C3CC3)c(=O)c3c(Nc4ccc(I)cc4F)n(C)c(=O)c(C)c32)c1 [Trametinib] (partner 0.02 µM) | 0.373
Oc1nc(-c2ccc(C(F)(F)F)cc2)nc2c1CSCC2 [XAV939] + C[C@@H](Oc1cc(-c2cnn(C3CCNCC3)c2)cnc1N)c1c(Cl)ccc(F)c1Cl [Crizotinib] (partner 1 µM) | 0.687
C=C1C(=O)O[C@@H](CCCCCCCC)[C@@H]1C(=O)O [C-75] + N=C(N)NC(=N)NCCc1ccccc1 [Phenformin] (partner 250 µM) | 0.545
Oc1nc(-c2ccc(C(F)(F)F)cc2)nc2c1CSCC2 [XAV939] + CC(=O)c1c(C)c2cnc(Nc3ccc(N4CCNCC4)cn3)nc2n(C2CCCC2)c1=O [Palbociclib] (partner 0.5 µM) | 0.465
C=C1C(=O)O[C@@H](CCCCCCCC)[C@@H]1C(=O)O [C-75] + C[C@@H](Oc1cc(-c2cnn(C3CCNCC3)c2)cnc1N)c1c(Cl)ccc(F)c1Cl [Crizotinib] (partner 1 µM) | 0.597

Here is the next item to consider.
Recorded relative viability for C=C1C(=O)O[C@@H](CCCCCCCC)[C@@H]1C(=O)O [C-75] + O=C(c1cc(Cc2n[nH]c(=O)c3ccccc23)ccc1F)N1CCN(C(=O)C2CC2)CC1 [Olaparib] (partner 8 µM) , please?
0.774
